// reported pIC50 for each item listed
Target: Lysine-specific demethylase 4D (Homo sapiens)
Sequence (Q6B0I6 whole entry): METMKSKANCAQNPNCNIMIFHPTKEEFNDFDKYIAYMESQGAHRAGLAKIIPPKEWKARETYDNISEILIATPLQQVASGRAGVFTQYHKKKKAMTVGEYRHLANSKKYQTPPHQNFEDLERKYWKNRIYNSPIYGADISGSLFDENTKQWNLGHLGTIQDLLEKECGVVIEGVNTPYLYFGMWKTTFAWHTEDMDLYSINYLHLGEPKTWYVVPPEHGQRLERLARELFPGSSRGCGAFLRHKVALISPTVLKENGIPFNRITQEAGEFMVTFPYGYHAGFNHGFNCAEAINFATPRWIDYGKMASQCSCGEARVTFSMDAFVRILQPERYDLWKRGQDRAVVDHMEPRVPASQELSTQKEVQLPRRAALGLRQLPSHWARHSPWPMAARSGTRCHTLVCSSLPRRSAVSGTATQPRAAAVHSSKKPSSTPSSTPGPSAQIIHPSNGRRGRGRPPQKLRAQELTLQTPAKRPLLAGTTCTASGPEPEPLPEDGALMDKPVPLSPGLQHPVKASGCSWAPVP
Experiment: Inhibition of human KDM4D expressed in Escherichia coli BL21 (DE3) using biotinylated H3-derived peptide and 2-OG as substrate preincubated for 15 mins followed by substrate addition and measured after 1 hr by AlphaLISA assay
Answer as the number alone; pIC50 is minus log10 of concentration in mol/L.

Compound	pIC50
O=C(O[C@@H]1CCN(C(c2ccncc2)c2cc3c(cc2O)OCO3)C1)C1CC1 (some centres not stated)	6.23
COc1cc(C#N)ccc1C(c1cc2c(cc1O)OCO2)N1CC[C@@H](NC(=O)OC(C)(C)C)C1 (some centres not stated)	6.43
CC(C)(C)OC(=O)N[C@@H]1CCN(C(c2ccc(C#N)cc2)c2cc3c(cc2O)OCO3)C1 (some centres not stated)	6.85
CC(C)(C)OC(=O)N[C@@H]1CCN(C(c2cccc(-c3ccccn3)c2)c2cc3c(cc2O)OCO3)C1 (some centres not stated)	6.55
CC(C)(C)OC(=O)N[C@@H]1CCN(C(c2cc3c(cc2O)OCO3)c2ccc(F)cc2Cl)C1 (some centres not stated)	6.93

Entry under review: O=C(N[C@@H]1CCN(C(c2ccncc2)c2cc3c(cc2O)OCO3)C1)c1ccccc1 (some centres not stated) . Reported pIC50?
6.27

Follow-up entry: O=C(N[C@@H]1CCN(C(c2ccncc2)c2cc3c(cc2O)OCO3)C1)c1ccccc1F (some centres not stated)
6.36

###

Target: Lysine-specific demethylase 4D (Homo sapiens) (UniProt Q6B0I6)
Test: Inhibition of human KDM4D expressed in Escherichia coli BL21 (DE3) at 1 uM using biotinylated H3-derived peptide and 2-OG as substrate preincubated for 15 mins followed by substrate addition and measured after 1 hr by AlphaLISA assay
Settings: time 75.0 min
Quick reference: inhibition of the listed items.
Quick note: unit goes after the number.

Answered examples (4):
Compound	inhibition
Cc1nccn1-c1ccc(C(c2cc3c(cc2O)OCO3)N2CC[C@@H](NC(=O)OC(C)(C)C)C2)cc1 (stereo not given in full)	99.8%
CC(C)(C)OC(=O)N[C@@H]1CCN(C(c2ccc(-c3cccnc3)cc2)c2cc3c(cc2O)OCO3)C1 (stereo not given in full)	99.2%
CC(C)(C)OC(=O)N[C@@H]1CCN(C(c2cc3c(cc2O)OCO3)c2ccnc3ccccc23)C1 (stereo not given in full)	99.5%
CC(C)(C)OC(=O)N[C@@H]1CCN(C(c2ccc(F)cc2)c2cc3c(cc2O)OCO3)C1 (stereo not given in full)	98.2%

Now, please, on to the next compound.
Look up inhibition with Lysine-specific demethylase 4D (Homo sapiens) (UniProt Q6B0I6) for this compound: O=C(N[C@@H]1CCN(C(c2ccncc2)c2cc3c(cc2O)OCO3)C1)c1ccccc1 (stereo not given in full)
99.9%

###

Molecular target: Lysine-specific demethylase 4D (Homo sapiens)
Assay: Inhibition of human KDM4D expressed in Escherichia coli BL21 (DE3) using biotinylated H3-derived peptide and 2-OG as substrate preincubated for 15 mins followed by substrate addition and measured after 1 hr by AlphaLISA assay
Readout Name: pIC50
Please note pIC50 is a logarithmic value: minus log10 of concentration in mol/L. Answer with that number alone.

Worked cases, answers included:
Compound	Recorded Measurement
COC(=O)c1ccc(C(c2cc3c(cc2O)OCO3)N2CC[C@@H](NC(=O)OC(C)(C)C)C2)cc1 (stereo not given in full)	6.35
CN(C)[C@@H]1CCN(C(c2ccncc2)c2cc3c(cc2O)OCO3)C1 (stereo not given in full)	6.70
N[C@@H]1CCN(C(c2ccncc2)c2cc3c(cc2O)OCO3)C1 (stereo not given in full)	5.76

Which pIC50 value belongs to CC(C)(C)NC(=O)N[C@@H]1CCN(C(c2ccncc2)c2cc3c(cc2O)OCO3)C1 (stereo not given in full) ?
6.73

One more compound: CC(C)C(=O)N[C@@H]1CCN(C(c2ccncc2)c2cc3c(cc2O)OCO3)C1 (stereo not given in full)
6.66

// next record O=C(N[C@@H]1CCN(C(c2ccncc2)c2cc3c(cc2O)OCO3)C1)c1cccc(F)c1 (stereo not given in full)
6.45

Another: CCOc1ccc(C(=O)N[C@@H]2CCN(C(c3ccncc3)c3cc4c(cc3O)OCO4)C2)cc1 (stereo not given in full)
6.77

Try this compound too: O=C(N[C@@H]1CCN(C(c2ccncc2)c2cc3c(cc2O)OCO3)C1)c1ccccc1Cl (stereo not given in full)
6.73

Then what about the compound CC(C)(C)OC(=O)N[C@@H]1CCN(C(c2cc3c(cc2O)OCO3)c2ccc(F)cc2F)C1 (stereo not given in full) ?
6.76

// same read-out, input: CC(C)(C)OC(=O)N[C@@H]1CCN(C(c2ccc(C#N)cn2)c2cc3c(cc2O)OCO3)C1 (stereo not given in full)
7.35

Record: CC(=O)N[C@@H]1CCN(C(c2ccncc2)c2cc3c(cc2O)OCO3)C1 (stereo not given in full)
6.28

Field entry: CC(C)(C)OC(=O)N[C@@H]1CCN(C(c2ccncc2)c2cc3c(cc2O)OCO3)C1 (stereo not given in full)
6.87

Now the compound O=C(N[C@@H]1CCN(C(c2ccncc2)c2cc3c(cc2O)OCO3)C1)C1CCCCC1 (stereo not given in full)
6.28

Also Cc1nccn1-c1ccc(C(c2cc3c(cc2O)OCO3)N2CC[C@@H](NC(=O)OC(C)(C)C)C2)cc1 (stereo not given in full) , if possible.
7.06

And the next one, CC(C)(C)OC(=O)N[C@@H]1CCN(C(c2ccc(-c3ccncc3)nc2)c2cc3c(cc2O)OCO3)C1 (stereo not given in full) ?
6.78
